- MEASURED TARGET: human cathepsin F (Homo sapiens, UniProt Q9UBX1)
- ASSAY TEXT: Cathepsin F Assay
- Type: biochemical
- ASSAY CONTEXT: IP from dose response curve; Z-Phe-Arg-AMC substrate, pH 5.5; read-out: hCat F (IP (nM))
PROPERTY MEASURED: IC50 (nM)
Your answer is read as nM, so omit the unit and give the number.

IC50 reading for N#CC1(NC(=O)[C@@H]2C[C@@H](F)CC[C@H]2c2nn(-c3ccc(F)cn3)cc2-c2ccc(N3CCS(=N)(=O)CC3)cc2)CC1 [Example 59] : 2460

IC50 reading for Cc1c(-c2ccc(N3CCS(=O)(=O)CC3)cc2)c([C@@H]2CCCC[C@H]2C(=O)N[C@@H](C)C#N)nn1-c1ccc(F)cn1 : 653

IC50 reading for N#CC1(NC(=O)[C@@H]2CCCC[C@H]2c2nn(-c3ncc(F)cc3Cl)cc2-c2ccc(N3CCS(=O)(=O)CC3)cc2)CC1 : 1190

IC50 reading for CCN=S1(=O)CCN(c2ccc(-c3cn(-c4ccc(F)cc4)nc3[C@@H]3CCCC[C@H]3C(=O)NC3(C#N)CC3)cc2)CC1 : 725

IC50 reading for Cc1ccc(-n2cc(-c3ccc(N4CCS(=O)(=O)CC4)cc3)c([C@@H]3CCCC[C@H]3C(=O)NC3(C#N)CC3)n2)nn1 : 517

IC50 reading for CC1(C)CCC(C(=O)NC2(C#N)CC2)C(c2nn(-c3ccc(F)cc3)cc2-c2ccc(N3CCS(=O)(=O)CC3)cc2)C1 (stereo not drawn) [Example 117] : 1570

* * *

Answer each item with its documented IC50.
- MEASURED TARGET: UniProt:Q9UBX1
- Sequence (Q9UBX1 271-484): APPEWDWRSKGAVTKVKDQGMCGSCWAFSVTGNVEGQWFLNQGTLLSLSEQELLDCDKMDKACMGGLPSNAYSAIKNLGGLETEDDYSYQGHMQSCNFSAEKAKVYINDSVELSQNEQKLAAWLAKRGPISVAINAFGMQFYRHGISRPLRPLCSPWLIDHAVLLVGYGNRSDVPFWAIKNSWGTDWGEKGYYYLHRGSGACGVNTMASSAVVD
- ASSAY TEXT: Cathepsin F Assay
- Assay type: biochemical
- ASSAY CONTEXT: IP from dose response curve; Z-Phe-Arg-AMC substrate, pH 5.5; read-out: hCat F (IP (nM))
- Description: Serial dilutions (1/3) from 500 μM down to 0.025 μM of test compounds were prepared in dimethyl sulfoxide (DMSO). Then 0.5 μL of DMSO from each dilution were added to 18.75 μL of assay buffer (MES, 50 mM (pH 5.5); EDTA, 2.5 mM; DTT, 2.5 mM and 10% DMSO) containing human cathepsin F (10 nM) in assay buffer solution. […] Percent of inhibition were calculated by fitting experimental values to standard mathematical model for dose response curve.
Your answer is read as nM, so omit the unit and give the number.

IC50 reading for N#CC1(NC(=O)[C@@H]2CCCC[C@H]2c2nn(-c3ccc(Cl)cc3)cc2-c2ccc(N3CCS(=O)(=O)CC3)cc2)CC1 : 402

IC50 reading for N#CC1(NC(=O)[C@@H]2CCC(F)(F)C[C@H]2c2nn(-c3ccc(F)cc3)cc2-c2ccc(N3CCS(=O)(=O)CC3)cc2)CC1 : 1010

IC50 reading for N#CC1(NC(=O)[C@@H]2CCCC[C@H]2c2nn(-c3ccc(F)cc3)cc2-c2ccc(C(=O)N3CCOCC3)cc2)CC1 : 1010

IC50 reading for N#CC1(NC(=O)[C@@H]2C[C@@H](F)CC[C@H]2c2nn(-c3ccc(F)cc3)cc2-c2ccc(N3CCS(=N)(=O)CC3)cc2)CC1 : 2600

IC50 reading for N#CC1(NC(=O)[C@@H]2CCCC[C@H]2c2nn(-c3cc(F)ccc3F)cc2-c2ccc(N3CCS(=O)(=O)CC3)cc2)CC1 : 633

IC50 reading for N#CC1(NC(=O)[C@@H]2CCCC[C@H]2c2nn(-c3ccc(OC(F)(F)F)cc3)cc2-c2ccc(N3CCS(=O)(=O)CC3)cc2)CC1 : 562

* * *

- MEASURED TARGET: human cathepsin F (Homo sapiens)
- ASSAY TEXT: Cathepsin F Assay
- Assay type: biochemical
- ASSAY CONTEXT: IP from dose response curve; Z-Phe-Arg-AMC substrate, pH 5.5; read-out: hCat F (IP (nM))
Answer each item with its documented IC50.
Your answer is read as nM, so omit the unit and give the number.

IC50 reading for CC(C)OC(=O)N1CC(c2ccc(-c3cn(-c4ccc(F)cc4)nc3[C@@H]3CCCC[C@H]3C(=O)NC3(C#N)CC3)cc2)C1 : 49

IC50 reading for N#CC1(NC(=O)[C@@H]2CCCC[C@H]2c2nn(-c3ccc(C(F)(F)F)nc3)cc2-c2ccc(N3CCS(=O)(=O)CC3)cc2)CC1 : 428

IC50 reading for N#CC1(NC(=O)[C@@H]2CC3CC3C[C@H]2c2nn(-c3ccc(F)cc3)cc2-c2ccc(N3CCS(=O)(=O)CC3)cc2)CC1 (single isomer, unassigned) [Example 4] : 258

* * *

- MEASURED TARGET: human cathepsin K (UniProt P43236, Y175D/V274L, species not given)
- ASSAY TEXT: Cathepsin K Assay
- Assay type: biochemical
- ASSAY CONTEXT: IP from dose response curve; Z-Leu-Arg-AMC substrate, pH 5.5; read-out: hrbCat K (IP (nM))
// boundary case: IC50 equal to 2 nM maps to not fulfilled; strictly smaller maps to fulfilled

Prompt: Given the entry Cn1cc(-n2cc(-c3ccc(N4CCS(=O)(=O)CC4)cc3)c([C@@H]3CCCC[C@H]3C(=O)NC3(C#N)CC3)n2)cn1 [Example 171] , would its reported IC50 be below 2 nM?
Response: not fulfilled

Prompt: Given the entry N#CC1(NC(=O)[C@@H]2CCCC[C@H]2c2nn(-c3cc(F)cc(F)c3)cc2-c2ccc(N3CCS(=O)(=O)CC3)cc2)CC1 [Example 118] , would its reported IC50 be below 2 nM?
Response: fulfilled

Prompt: Given the entry N#CC1(NC(=O)[C@@H]2CCCC[C@H]2c2nn(-c3ccc(F)cc3F)cc2-c2ccc(N3CCS(=O)(=O)CC3)cc2)CC1 [Example 131] , would its reported IC50 be below 2 nM?
Response: not fulfilled

Prompt: Given the entry Cc1c(-c2ccc(N3CCS(=O)(=O)CC3)cc2)c([C@@H]2CCCC[C@H]2C(=O)N[C@H](C#N)C(C)C)nn1-c1ncccc1F [Example 43] , would its reported IC50 be below 2 nM?
Response: not fulfilled

Prompt: Given the entry CN=S1(=O)CCN(c2ccc(-c3cn(-c4ccc(F)cn4)nc3[C@@H]3CC[C@H](F)C[C@H]3C(=O)N[C@@H](C)C#N)cc2)CC1 [Example 38] , would its reported IC50 be below 2 nM?
Response: fulfilled

Prompt: Given the entry N#CC1(NC(=O)[C@@H]2CCCC[C@H]2c2nn(-c3ncc(F)cc3F)cc2-c2ccc(N3CCS(=O)(=O)CC3)cc2)CC1 [Example 148] , would its reported IC50 be below 2 nM?
Response: fulfilled

* * *

- MEASURED TARGET: human cathepsin K (UniProt P43236, Y175D/V274L, species not given)
- ASSAY TEXT: Cathepsin K Assay
- Format: biochemical
- ASSAY CONTEXT: IP from dose response curve; Z-Leu-Arg-AMC substrate, pH 5.5; read-out: hrbCat K (IP (nM))
// boundary case: IC50 equal to 7 nM maps to -1; strictly smaller maps to 1

Prompt: Given the entry CC1(C)CCC(C(=O)NC2(C#N)CC2)C(c2nn(-c3ccc(F)cc3)cc2-c2ccc(N3CCS(=O)(=O)CC3)cc2)C1 (stereo not drawn) [Example 117] , would its reported IC50 be below 7 nM?
Response: -1

Prompt: Given the entry Cc1c(-c2ccc(N3CCS(=O)(=O)CC3)cc2)c([C@@H]2CCCC[C@H]2C(=O)NC2(C#N)CC2)nn1-c1ncccc1F [Example 41] , would its reported IC50 be below 7 nM?
Response: -1

Prompt: Given the entry Cc1cc(C#N)ccc1-n1cc(-c2ccc(N3CCS(=O)(=O)CC3)cc2)c([C@@H]2CCCC[C@H]2C(=O)NC2(C#N)CC2)n1 [Example 103] , would its reported IC50 be below 7 nM?
Response: 1

Prompt: Given the entry CC(C)[C@@H](C#N)NC(=O)[C@@H]1C[C@@H](F)CC[C@H]1c1nn(-c2ncccc2F)cc1-c1ccc(N2CCS(=O)(=O)CC2)cc1 [Example 49] , would its reported IC50 be below 7 nM?
Response: -1

Prompt: Given the entry Cc1c(-c2ccc(N3CCS(=O)(=O)CC3)cc2)c([C@@H]2CCCC[C@H]2C(=O)NC2(C#N)CC2)nn1-c1ccc(F)cc1 [Example 139] , would its reported IC50 be below 7 nM?
Response: -1

Prompt: Given the entry N#CC1(NC(=O)[C@@H]2C[C@@H](F)CC[C@H]2c2nn(-c3ncccc3F)cc2-c2ccc(N3CCS(=O)(=O)CC3)cc2)CC1 [Example 29] , would its reported IC50 be below 7 nM?
Response: 1
